MEASUREMENT NAME: melting point

ClCCl; -95 °C
[2H]C([2H])([2H])[2H]; -183 °C
[2H]OC([2H])([2H])C([2H])([2H])[2H]; -114 °C
CCOc1ccccc1B(O)O; 100 °C
O=C(O)CCc1cccc(O)c1 [3-(3-hydroxyphenyl)propionic acid]; 112 °C

Give melting point for all compounds that follow.
1. N#Cc1ccc(Cl)c([N+](=O)[O-])c1
2. O=C(O)/C=C/c1ccc(F)cc1F [trans-2,4-difluorocinnamic acid]
3. N#Cc1cc(C(F)(F)F)ccc1Cl
4. C[Si]1(C)O[Si](C)(C)O[Si](C)(C)O[Si](C)(C)O[Si](C)(C)O1
5. NC(Cc1cc(I)c(Oc2cc(I)c(O)c(I)c2)c(I)c1)C(=O)O (centres undefined)

["100 °C", "217 °C", "39 °C", "-44 °C", "236 °C"]

Give measured melting point for every item shown.
1. N#CCc1ccc([N+](=O)[O-])cc1
2. OC/C(Br)=C(\Br)CO
3. Cl/C(Cl)=C/C3C(C(=O)OCc2cccc(Oc1ccccc1)c2)C3(C)C (centres undefined)
4. COc1ccccc1Br

1: 116 °C; 2: 113 °C; 3: 34 °C; 4: 3 °C

====

Could you please report measured melting point for the items listed next?
Give bare numbers, in °C.

O=S(=O)(Cl)c1cccc(Cl)c1Cl [2,3-dichlorobenzenesulfonyl chloride]; 60
OCCNCCO [diethanolamine]; 29
O=Cc1ccc([N+](=O)[O-])cc1 [p-nitrobenzaldehyde]; 108
COc1cc(C(=O)NS(=O)(=O)c2ccccc2C)ccc1Cc1cn(C)c2ccc(NC(=O)OC3CCCC3)cc12 [Zafirlukast]; 139
O=C(O)c1ccc(Br)cc1 [p-bromobenzoic acid]; 252

Give melting point for each of the items listed below.
1. CC(=O)N(Nc1ccccc1/N=N/c1ccccc1)c1ccccc1 [N-phenyl-N'-{2-[(E)-phenyldiazenyl]phenyl}acetohydrazide]
2. CC(=O)OCC1OC(OCc2ccccc2)C(OC(C)=O)C(OC(C)=O)C1OC(C)=O (stereo not drawn)
3. COc1cccc(C(=O)O)c1 [3-Methoxybenzoic acid]

[103, 98, 106]

====

Decision: melting point compared against 60 °C; not below it gives y, below it gives n.

Please review the following examples before continuing.
Cc1cc(CO)nn1-c1ccccn1; n
CN1C(C(=O)Nc2ccccn2)=C(O)c2sccc2S1(=O)=O; y
CC1(C)OC(=O)C(=Cc2cccc([N+](=O)[O-])c2)C(=O)O1; y
CN(C)CCCN1c2ccccc2Sc2ccc(Cl)cc21; n
O=C=N/c1cc(ccc1C)N=C=O; n
c1ccc2c(c1)CCC2; n

Kindly review the next molecule as well.
Is the recorded value of melting point equal to or greater than 60 °C for this molecule? "BrCCCCBr"
n

====

Could you please report measured melting point for the items listed next?
Numbers only, in °C.

Completed entries (count: 2):
OC(c1ccccc1)(c1ccccc1)C(O)(c1ccccc1)c1ccccc1 [benzopinacol]; 177
NC(=O)C12CC3CC(CC(C3)C1)C2 [adamantane-1-carboxamide]; 187

With those in mind, consider the next molecule.
melting point lookup needed for CC(=O)CC(C)C [4-Methylpentan-2-one] , thanks.
-80

====

MEASUREMENT NAME: melting point (°C)
Answers are plain numbers, in °C.

Answered cases to consult:
NS(=O)(=O)Cc1ccccc1 [alpha-toluenesulfonamide]; 103
CCCC(C)O (stereo unspecified) [Pentan-2-ol]; -50
CCCCCCC=O [Heptanal]; -43
O=C(O)C=Cc1ccco1 [b-2-Furylacrylic Acid]; 133
CC(=O)N[C@@H](CS)C(=O)O [N-acetyl-l-cysteine]; 110

Field: next molecule
Entry O=[N+]([O-])c1ccc(F)c([N+](=O)[O-])c1 [1-fluoro-2,4-dinitrobenzene] has what melting point?
27

====

Would you mind telling me the reported melting point of each entry?
Give bare numbers, in °C.

CCCCCCCCCCCCCCCO; 46

For every item below, please supply its melting point.
1. Cc1nnc(S)s1
2. CCN(Cc1ccncc1)C(=O)C(CO)c1ccccc1 (stereo unspecified) [tropicamide]
3. N#CCc1cccc(Br)c1
4. CC(C)I [2-iodopropane]
5. CCCCOC(=O)CCC [N-butyl butyrate]
6. Nc1ccc(Cl)cc1
7. O=Cc1ccc([N+](=O)[O-])o1
8. CCCCCC(C)=O

187
96
27
-90
-92
72.5
36
-35

Provide reported melting point for each item, in the same order as listed.
1. Cn1nnnc1S
2. CCCC(C)(COC(N)=O)COC(N)=O [meprobamate]
3. Cc1cc(C)cc(C)c1
4. O=C(O)/C=C/c1ccccc1 [(2E)-3-Phenylacrylic acid]
5. CN(CCO)CCO

1. 127
2. 104
3. -45
4. 133
5. -21

State the recorded melting point for every item in the following list.
1. Cc1cc(C(F)(F)F)n2nc(N)c(/N=N/c3c(Br)cc(Br)cc3Br)c2n1
2. CCN1CCCC1CNC(=O)c1cc(S(N)(=O)=O)ccc1OC (stereo unspecified) [sulpiride]
3. CC1=NCCN1
4. O=C(O)c1cccc2ccccc12
5. CCc1cccc(C)c1N(C(=O)CCl)C(C)COC (stereo unspecified)
6. Oc1cccc(Cl)c1Cl [2,3-dichlorophenol]
7. N#CCCCl

1: 99; 2: 178; 3: 100; 4: 162; 5: 25; 6: 59; 7: -50

====

MEASUREMENT NAME: melting point (°C)
Give bare numbers, in °C.

In the examples that follow, each entry is paired with its recorded melting point.
CCC#N [ethyl_cyanide]; -93
CC(C)C(=O)O [Isobutyric Acid]; -46

Now let's try a different one.
Field request: melting point | item: C=CCCCCCCCCCC [1-dodecene]
-35

====

Could you please report measured melting point for the items listed next?
Numbers only, in °C.

Examples with answers:
O=C(O)Cc1ccc(Br)cc1; 117
Oc1cc2ccccc2cc1O [2,3-dihydroxynaphthalene]; 164
[2H]C(Cl)(Cl)Cl; -64

Give melting point for each listed item.
1. O=C(O)CCc1ccccc1 [3-phenylpropanoic_acid]
2. O=C(/C=C/OC(=O)c1ccccc1)CCc1ccccc1 [(1E)-3-oxo-5-phenylpent-1-en-1-yl benzoate]
3. O=C(O)CCc1nc(-c2ccccc2)c(-c2ccccc2)o1
4. O/N=C/c1ccccc1O
5. O=C(O)\C=C(/C)C
6. N#Cc1cccc(C(=O)O)c1

1: 49; 2: 100; 3: 158; 4: 57; 5: 69.5; 6: 223

====

melting point under 60 °C gets true (1), anything at or over 60 °C gets false (0).

Use these answered entries as a reference point.
O=[N+]([O-])c1ccccc1; true (1)
CN(C)CCOc1ccc(/C(=C(/CCCl)c2ccccc2)c2ccccc2)cc1; false (0)
COc1ccc(C(C)(C)C)cc1C(=O)O; false (0)
C1CCC(C2CCCCC2)CC1; true (1)
CC(=O)C1=CC[C@H]2[C@@H]3CC(=O)C4=C[C@@H](O)CC[C@]4(C)[C@H]3CC[C@]12C [3β-Hydroxypregna-4,16-diene-6,20-dione]; false (0)
C=CCN=C=S [allyl isothiocyanate]; true (1)

Answer whether the compound CCNc1nc(NC(C)(C)C)nc(SC)n1 [terbutryne] has melting point strictly less than 60 °C
false (0)

Record COC(=O)c1ccccc1[N+](=O)[O-] [methyl 2-nitrobenzoate] : is its melting point strictly below 60 °C?
true (1)

Lab note: confirm whether the reported melting point for this compound is below 60 °C, equality not counting. compound: "CCc1nc(N)nc(N)c1-c1ccc(Cl)cc1"
false (0)

Determine if CC(C)(C)NCC(O)c1cc(O)cc(O)c1 (configuration not stated) shows melting point strictly lower than 60 °C.
false (0)

====

What melting point was measured for each of the following?
One number for each entry, in °C.

Worked cases, answers included:
Cc1ccccc1NC=O [N-(2-Methylphenyl)formamide]; 53
CC(C)(c1ccccc1)c1ccc(O)cc1; 71.5
C[C@]12CCC(=O)C=C1CC[C@@H]1[C@@H]2[C@@H](O)C[C@@]2(C)[C@H]1CC[C@]2(O)C(=O)CO [hydrocortisone]; 221

# input compound: COC(=O)c1ccccc1O [methyl salicylate] ; wanted: its melting point
-9

====

Field: melting point. Provide a value for each of the compounds that follow.
A complete answer gives the number and then names the unit.

Some entries whose results are on file:
CCOc1ccc(C#N)cc1 [4-ethoxybenzonitrile]; 62 °C
C#CC(C)(C)C [3,3-dimethyl-1-butyne]; -78 °C
CCCCOC(=O)c1ccccc1 [butyl_benzoate]; -12 °C

// next item, melting point requested
Dear colleague, I am looking for the recorded melting point of the following compound: O=C1OC2(c3ccc(O)cc3Oc3cc(O)ccc32)c2ccccc21 [fluorescein]
320 °C

====

Would you please tag the item label 1 when its melting point is 100 °C or above, and label 0 when it is below?

As a guide, the following entries are already answered.
CC(C(=O)O)c1ccc(-c2ccccc2)c(F)c1 (stereo not drawn) [2-fluoro-alpha-methyl-4-biphenylacetic acid]; label 1
N#Cc1c(N)sc2c1CCCC2 [2-Amino-4,5,6,7-tetrahydrobenzo(b)thiophene-3-carbonitrile]; label 1
c1cnc2c(c1)ccc1cccnc12 [1,10-phenanthroline, anhydrous]; label 1
Nc1ccc(C2CCCCC2)cc1 [4-cyclohexylaniline]; label 0

Quick check, melting point >= 100 °C? Oc1c(F)c(F)c(O)c(F)c1F [2,3,5,6-tetrafluorohydroquinone]
label 1

Does the compound O=C1Nc2c(Cl)ccc(Cl)c2C1=O [4,7-dichloroisatin] have recorded melting point that is 100 °C or more?
label 1
